- tested_target: α-glucosidase (Saccharomyces cerevisiae, UniProt P53341)
- Construct: purchased Sigma-Aldrich Co
- Sequence (P53341 whole entry): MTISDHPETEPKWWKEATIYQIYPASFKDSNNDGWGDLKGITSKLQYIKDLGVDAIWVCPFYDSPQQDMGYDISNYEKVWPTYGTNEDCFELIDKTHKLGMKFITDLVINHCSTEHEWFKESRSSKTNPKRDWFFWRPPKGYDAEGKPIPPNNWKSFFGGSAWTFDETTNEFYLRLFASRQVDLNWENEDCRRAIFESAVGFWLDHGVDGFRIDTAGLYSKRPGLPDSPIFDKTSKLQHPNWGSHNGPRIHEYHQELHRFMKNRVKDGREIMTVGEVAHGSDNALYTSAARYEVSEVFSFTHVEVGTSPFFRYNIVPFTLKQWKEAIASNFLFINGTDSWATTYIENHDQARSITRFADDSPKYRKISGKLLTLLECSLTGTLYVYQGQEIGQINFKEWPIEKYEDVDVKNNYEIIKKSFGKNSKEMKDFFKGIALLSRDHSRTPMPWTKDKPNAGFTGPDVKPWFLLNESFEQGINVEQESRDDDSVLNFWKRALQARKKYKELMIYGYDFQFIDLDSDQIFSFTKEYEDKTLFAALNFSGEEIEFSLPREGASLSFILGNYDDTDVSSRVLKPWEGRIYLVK
- assay_notes: Fluorescence quenching experiment with α-glucosidase (Stern-Volmer, double logarithmic, Van 't Hoff)
- Type: binding
- test_conditions: Ka (binding constant) α-glucosidase, T 310.15 K
pKd: −log10 of the molar value.
assay_metric: pKd

item_smiles=O=c1c(O)c(-c2ccc(O)c(O)c2)oc2cc(O[C@@H]3O[C@H](CO)[C@@H](O)[C@H](O)[C@H]3O)cc(O)c12 assay_metric=pKd meas_value=4.61

* * *

- tested_target: α-amylase (Sus scrofa, UniProt P00690)
- Construct: α-amylase (EC 232-565-6, powder, ≥5 units/mg solid) isolated from porcine pancreas; purchased Sigma-Aldrich Co; host or cells: porcine pancreas
- assay_notes: Fluorescence quenching experiment with α-amylase (Stern-Volmer, double logarithmic, Van 't Hoff)
- Type: binding, porcine
- test_conditions: Ka (binding constant) α-amylase, T 300.15 K
pKd: −log10 of the molar value.
assay_metric: pKd

molecule="O=c1c(O)c(-c2ccc(O)c(O)c2)oc2cc(O[C@@H]3O[C@H](CO)[C@@H](O)[C@H](O)[C@H]3O)cc(O)c12 [Quercimeritrin]" tested_target="α-amylase (Sus scrofa, UniProt P00690)" meas_value=4.82

* * *

- tested_target: α-amylase (Sus scrofa)
- Construct: α-amylase (EC 232-565-6, powder, ≥5 units/mg solid) isolated from porcine pancreas; purchased Sigma-Aldrich Co; host or cells: porcine pancreas
- Sequence (P00690 16-511): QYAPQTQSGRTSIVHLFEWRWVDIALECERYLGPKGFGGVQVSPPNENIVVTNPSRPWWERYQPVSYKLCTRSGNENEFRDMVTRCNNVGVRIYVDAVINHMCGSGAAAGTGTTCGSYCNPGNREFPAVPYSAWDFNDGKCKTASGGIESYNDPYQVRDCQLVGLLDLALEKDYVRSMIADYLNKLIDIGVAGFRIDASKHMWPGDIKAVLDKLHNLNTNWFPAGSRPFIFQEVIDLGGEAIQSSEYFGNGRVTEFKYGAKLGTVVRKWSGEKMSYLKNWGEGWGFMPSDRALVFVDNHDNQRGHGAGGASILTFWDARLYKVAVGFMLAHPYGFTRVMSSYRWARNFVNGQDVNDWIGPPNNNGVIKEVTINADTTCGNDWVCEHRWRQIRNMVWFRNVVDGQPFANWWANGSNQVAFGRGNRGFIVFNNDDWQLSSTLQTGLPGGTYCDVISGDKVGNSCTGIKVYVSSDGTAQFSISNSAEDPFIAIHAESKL
- assay_notes: Fluorescence quenching experiment with α-amylase (Stern-Volmer, double logarithmic, Van 't Hoff)
- Type: binding, porcine
- test_conditions: Ka (binding constant) α-amylase, T 305.15 K
pKd: −log10 of the molar value.
assay_metric: pKd

item_smiles=O=c1c(O)c(-c2ccc(O)c(O)c2)oc2cc(O[C@@H]3O[C@H](CO)[C@@H](O)[C@H](O)[C@H]3O)cc(O)c12 assay_metric=pKd meas_value=4.54

* * *

- tested_target: α-amylase (Sus scrofa)
- Construct: α-amylase (EC 232-565-6, powder, ≥5 units/mg solid) isolated from porcine pancreas; purchased Sigma-Aldrich Co; host or cells: porcine pancreas
- Sequence (P00690 16-511): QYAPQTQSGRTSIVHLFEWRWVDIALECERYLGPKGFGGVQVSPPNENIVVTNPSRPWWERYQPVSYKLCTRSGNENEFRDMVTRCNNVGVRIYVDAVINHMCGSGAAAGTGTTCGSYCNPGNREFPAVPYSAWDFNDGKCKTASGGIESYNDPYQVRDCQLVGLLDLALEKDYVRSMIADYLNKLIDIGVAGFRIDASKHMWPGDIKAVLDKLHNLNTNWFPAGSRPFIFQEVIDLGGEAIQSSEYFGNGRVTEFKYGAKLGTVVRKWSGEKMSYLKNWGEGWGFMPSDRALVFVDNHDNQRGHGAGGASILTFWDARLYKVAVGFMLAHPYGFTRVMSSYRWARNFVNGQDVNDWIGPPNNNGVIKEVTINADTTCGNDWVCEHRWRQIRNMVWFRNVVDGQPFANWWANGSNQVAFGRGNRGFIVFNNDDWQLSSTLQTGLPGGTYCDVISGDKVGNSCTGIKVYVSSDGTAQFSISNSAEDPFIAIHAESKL
- assay_notes: In vitro α-amylase activity assay (G3-CNP, absorbance 405 nm)
- Type: biochemical, porcine
- test_conditions: at 500 µM; read-out: α-Amylase inhibition
Reported values of inhibition at 500 µM for individual entries
assay_metric: inhibition at 500 µM (%)

molecule=O=c1c(O)c(-c2ccc(O)c(O)c2)oc2cc(O[C@@H]3O[C@H](CO)[C@@H](O)[C@H](O)[C@H]3O)c(O)c(O)c12 tested_target="α-amylase (Sus scrofa)" assay_metric="inhibition at 500 µM" meas_value=71
molecule="O=C(O)C1OC(Oc2c(-c3ccc(O)c(O)c3)oc3cc(O)cc(O)c3c2=O)C(O)C(O)C1O (centres unmarked)" tested_target="α-amylase (Sus scrofa)" assay_metric="inhibition at 500 µM" meas_value=42
molecule=C[C@@H]1O[C@@H](Oc2c(-c3ccc(O)c(O)c3)oc3cc(O)cc(O)c3c2=O)[C@H](O)[C@H](O)[C@H]1O tested_target="α-amylase (Sus scrofa)" assay_metric="inhibition at 500 µM" meas_value=22
molecule="O=C(O[C@@H]1Cc2c(O)cc(O)cc2O[C@@H]1c1ccc(O)c(O)c1)c1cc(O)c(O)c(O)c1 [Epicatechin gallate]" tested_target="α-amylase (Sus scrofa)" assay_metric="inhibition at 500 µM" meas_value=62
molecule=O=c1cc(-c2ccc(O)cc2)oc2cc(O[C@@H]3O[C@H](CO)[C@@H](O)[C@H](O)[C@H]3O)cc(O)c12 tested_target="α-amylase (Sus scrofa)" assay_metric="inhibition at 500 µM" meas_value=12
molecule=O=c1c(O[C@@H]2O[C@H](CO)[C@H](O)[C@H](O)[C@H]2O)c(-c2ccc(O)cc2)oc2cc(O)cc(O)c12 tested_target="α-amylase (Sus scrofa)" assay_metric="inhibition at 500 µM" meas_value=19
molecule=O=c1cc(-c2ccc(O)cc2)oc2cc(O)c([C@@H]3O[C@H](CO)[C@@H](O)[C@H](O)[C@H]3O)c(O)c12 tested_target="α-amylase (Sus scrofa)" assay_metric="inhibition at 500 µM" meas_value=43
molecule=O=c1cc(-c2ccccc2)oc2cc(O[C@@H]3O[C@H](CO)[C@@H](O)[C@H](O)[C@H]3O)c(O)c(O)c12 tested_target="α-amylase (Sus scrofa)" assay_metric="inhibition at 500 µM" meas_value=60
molecule=O=c1c(O)c(-c2ccc(O)c(O)c2)oc2cc(O[C@@H]3O[C@H](CO)[C@@H](O)[C@H](O)[C@H]3O)cc(O)c12 tested_target="α-amylase (Sus scrofa)" assay_metric="inhibition at 500 µM" meas_value=57
molecule="O=c1c(O[C@@H]2O[C@H](CO)[C@H](O)[C@H](O)[C@H]2O)c(-c2ccc(O)c(O)c2)oc2cc(O)cc(O)c12 [Hyperoside]" tested_target="α-amylase (Sus scrofa)" assay_metric="inhibition at 500 µM" meas_value=28
molecule=O=c1c(O[C@@H]2O[C@@H](CO)[C@H](O)[C@H]2O)c(-c2ccc(O)c(O)c2)oc2cc(O)cc(O)c12 tested_target="α-amylase (Sus scrofa)" assay_metric="inhibition at 500 µM" meas_value=19

* * *

- tested_target: α-glucosidase (Saccharomyces cerevisiae)
- Construct: purchased Sigma-Aldrich Co
- assay_notes: biochemical
pIC50: −log10 of the molar value.
pIC50 for assorted molecules
assay_metric: pIC50

molecule=O=c1c(O[C@@H]2O[C@@H](CO)[C@H](O)[C@H]2O)c(-c2ccc(O)c(O)c2)oc2cc(O)cc(O)c12 assay_metric=pIC50 meas_value="< 3.30"
molecule="O=c1c(O[C@@H]2O[C@H](CO)[C@H](O)[C@H](O)[C@H]2O)c(-c2ccc(O)c(O)c2)oc2cc(O)cc(O)c12 [Hyperoside]" assay_metric=pIC50 meas_value="< 3.30"
molecule="O=C(O[C@@H]1Cc2c(O)cc(O)cc2O[C@@H]1c1ccc(O)c(O)c1)c1cc(O)c(O)c(O)c1 [Epicatechin gallate]" assay_metric=pIC50 meas_value="< 3.60"
molecule=C[C@@H]1O[C@@H](Oc2c(-c3ccc(O)c(O)c3)oc3cc(O)cc(O)c3c2=O)[C@H](O)[C@H](O)[C@H]1O assay_metric=pIC50 meas_value="< 3.30"
molecule=O=c1cc(-c2ccc(O)cc2)oc2cc(O[C@@H]3O[C@H](CO)[C@@H](O)[C@H](O)[C@H]3O)cc(O)c12 assay_metric=pIC50 meas_value=3.73
molecule=O=c1c(O)c(-c2ccc(O)c(O)c2)oc2cc(O[C@@H]3O[C@H](CO)[C@@H](O)[C@H](O)[C@H]3O)cc(O)c12 assay_metric=pIC50 meas_value=4.10

* * *

- tested_target: α-amylase (Sus scrofa)
- Construct: α-amylase (EC 232-565-6, powder, ≥5 units/mg solid) isolated from porcine pancreas; purchased Sigma-Aldrich Co; host or cells: porcine pancreas
- assay_notes: In vitro α-amylase activity assay (G3-CNP, absorbance 405 nm)
- Format: biochemical, porcine
Recorded IC50, one value per entry.
assay_metric: IC50

item_smiles=O=c1cc(-c2ccc(O)cc2)oc2cc(O)c([C@@H]3O[C@H](CO)[C@@H](O)[C@H](O)[C@H]3O)c(O)c12 meas_value="> 500 µM"
item_smiles=O=c1c(O[C@@H]2O[C@@H](CO)[C@H](O)[C@H]2O)c(-c2ccc(O)c(O)c2)oc2cc(O)cc(O)c12 meas_value="> 500 µM"
item_smiles=O=c1c(O)c(-c2ccc(O)c(O)c2)oc2cc(O[C@@H]3O[C@H](CO)[C@@H](O)[C@H](O)[C@H]3O)cc(O)c12 meas_value="> 250 µM"

All figures here come from paper PMC10528180.
